- measurement target: T1, recombinant human IL-6 (human, UniProt P05231 30-212, limits assumed)
- T1 construct: also called rhIL6; human recombinant IL-6
- assay method text: competition ELISA, rhIL-6 in solution against captured IL-6
measured metric: IC50 (nM)
Only the number, expressed in nM, is required.

binder	IC50 [nM]
mAb 765 (antibody, V domains shown) VH: QVTLKESGPTLVKPTQTLTLTCSFSGFSLSTSGVGVGWVRQPPGKALEWLAFIFWDDDKYYSPSLESRLTITKDTSKNQVVLTMTNMDPVDTATYYCARSYDDYLYYALDYWGQGTLVT VL: DIQMTQSPSSLSAFVGDGVTMTCWASQSINDYLNWYHQRPGEAPELLVFAASNLQIGVPSRFRGSGSETYFTLTINSLQPEDSGTYFCQNAHSFPLTFGGGTKLEI	0.07

# context switch: different binder, same IC50
## Task # query: IC50 of entry mAb 275 (antibody, V domains shown) VH: QVTLKESGPALVKPTQTLTLTCTFSGFSLTTSGMCVSWIRQPPGKALEWLALIYWDDDKRYNPSLRSRLTITKDTSKNQVVLTMTNMDPVDTATYYCARSYDDYLYYALDYWGQGTLVT VL: DIQMTQSPSSLSAFVGDGVTMTCWASQSINDYLNWYHQRPGEAPELLVFAASNLQIGVPSRFRGSGSETYFTLTINSLQPEDSGTYFCQNGHSFPLTFGGGTKLEI
## Result 0.7
